Target: T1, human CD47-Fc (human, UniProt Q08722 19-139)
T1 construct: also called hCD47; not shown: Fc part
Experiment: BLI (ForteBio), human CD47-Fc on AHQ tip, Fab in solution 100 nM, monovalent
pKd: −log10 of the molar value.

[
  {
    "binder": "ADI-29345 Fab fragment (Fab, V domains shown) VH: QVQLQESGPGLVKPSETLSLTCTVSGGSISHYYWSWIRQPPGKGLEWIGYIYYSGVTTYNPSLKSRVTISVDTSKNQFSLKLSSVTAADTAVYYCARGKTGSTAWGQGTLVTVSS VL: DIQMTQSPSSVSASVGDRVTITCRASQGISRWLAWYQQKPGKAPKLLIYAASSLQSGVPSRFSGSGSGTDFTLTISSLQPEDFATYYCQQTVSFPITFGGGTKVEIKR",
    "pKd": 8.54
  },
  {
    "binder": "ADI-26660 Fab fragment (Fab, V domains shown, also called ADI-26660 (Fab form)) VH: QVQLQESGPGLVKPSETLSLTCTVSGGSISSYYWSWIRQPPGKGLEWIGSIYYSGSTNYNPSLKSRVTISVDTSKNQFSLKLSSVTAADTAVYYCARKQKHFDIWGQGTMVTVSS VL: DIQMTQSPSSVSASVGDRVTITCRASQGISSWLAWYQQKPGKAPKLLIYAASSLQSGVPSRFSGSGSGTDFTLTISSLQPEDFATYYCQQVNHHPWTFGGGTKVEIKR",
    "pKd": 6.89
  },
  {
    "binder": "ADI-29347 Fab fragment (Fab, V domains shown, also called ADI-29347 (Fab form)) VH: QVQLQESGPGLVKPSETLSLTCTVSGGSIANYYWSWIRQPPGKGLEWIGYTYFSGSTNYNPSLKSRVTISVDTSKNQFSLKLSSVTAADTAVYYCARGKTGSAAWGQGTLVTVSS VL: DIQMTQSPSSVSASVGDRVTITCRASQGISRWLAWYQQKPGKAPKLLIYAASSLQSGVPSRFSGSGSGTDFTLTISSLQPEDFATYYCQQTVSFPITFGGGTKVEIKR",
    "pKd": 7.95
  },
  {
    "binder": "ADI-29342 Fab fragment (Fab, V domains shown) VH: QVQLQESGPGLVKPSETLSLTCTVSGGSIMHYYWSWIRQPPGKGLEWIGYIYYSGSTNYNPSLKSRVTISVDTSKNQFSLKLSSVTAADTAVYYCARGKTGSAAWGQGTLVTVSS VL: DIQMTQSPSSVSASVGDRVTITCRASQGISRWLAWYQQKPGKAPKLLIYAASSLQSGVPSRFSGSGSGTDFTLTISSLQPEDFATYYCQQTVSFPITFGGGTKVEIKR",
    "pKd": 7.93
  }
]
